Assay Target: human Factor IXa (human, UniProt P00740 47-191; P00740 227-461)
Protocol Summary: cell-based or functional assay
Square brackets hold non-standard residues; d marks the D form. Ends that are not written are not given here.
Kindly state EC50 [µM], FXa generation assay for each of the entries shown.

Ac-KLTCLASYCWLF (not fully specified; cysteine pairing not given here) [Ac-KLTCLASYCWLF] : > 1 µM
AKQGRPISPD[dR]RAAGKLTCLASYCWLFWTGIA (not fully specified; printed as AKQGRPISPDrRAAGKLTCLASYCWLFWTGIA; cysteine pairing not given here) [AKQGRPISPDrRAAGKLTCLASYCWLFWTGIA] : < 0.5 µM
RRAPGKLQCLASYCWLFWTGFA : < 0.5 µM

// input: 2 binders below; output: EC50 [µM], FXa generation assay for each
1. RRAPGKLTCLASYCWLFLTGWARVPLPPRPHP [RRAPGKLTCLASYCWLF LTGWA RVPLPPRPHP]
2. HLGSPKLTCGASQCWLLNHEVS

1. > 1 µM
2. > 50 µM

Lookup result for KLTCLAXYCWLF (not fully specified; HSe 7) [KLTCLA-HSe-YCWLF] ; measured EC50 [µM], FXa generation assay: > 1 µM
